Molecular target: UniProtKB P48547
Assay: Measurement of Kv3 channel modulation: Kv3.1 assay (IonWorks Quattro whole-cell electrophysiology)
Assay type: cell-based
Conditions: Table 1, Reference Examples; current at -15 mV step, normalised to 50 microM reference compound; read-out: Kv3.1 pEC50 (converted)
Assign EC50 to each entry below.
Answers are plain numbers, in µM.

# example entries with known answers
molecule | EC50 [µM]
CC[C@@H]1CN(c2ccc(Oc3ccc(C)c4c3C3(CC3)CO4)nc2)C(=O)N1 [RE2, reference compound] | 20
Cc1ccc(Oc2ccc(N3C(=O)CC(C)(C)NC3=O)cn2)c2c1OCC21CC1 [RE5, reference compound] | 11.2
Cc1ccc(Oc2ccc(N3C(=O)NCC(C)(C)C3=O)cn2)c2c1OCC21CC1 [RE6, reference compound] | 25.1
Cc1ccc(Oc2ccc(N3CCNC3=O)cn2)c2c1OCC21CC1 [RE7, reference compound] | 39.8

In the following, a different molecule is considered.
Query string: Hi! What's the reported EC50 for Cc1ccc(Oc2ccc(N3C(=O)CCNC3=O)cn2)c2c1OCC21CC1 [RE8, reference compound] on UniProtKB P48547?
Result string: 25.1

====

Test: In vitro metabolic stability, human liver microsomes
Type: in vitro ADME
Details: CLint expressed as mL/min/g liver
Assign Cli human to each entry below.
One number for each entry, in mL/min/g.

# example entries with known answers
compound | Cli human, mL/min/g
Cc1ccc(Oc2ncc(-n3c(=O)[nH]c4cccnc43)cn2)cc1OC(F)(F)F [Example 32] | 0.8
Cc1ccc(Oc2ccc(-n3c(=O)[nH]c4cccnc43)cn2)cc1OC(F)(F)F [Example 4] | 0.7
Cc1ccc(Oc2ccc(-n3c(=O)[nH]c4cnccc43)cn2)cc1OC(F)(F)F [RE13, reference compound] | 0.6

In the following, a different compound is considered.
Query string: Query (compound): Cc1ccc(Oc2ccc(-n3c(=O)[nH]c4cncnc43)cn2)cc1OC(F)(F)F [RE12, reference compound] ; field requested: Cli human
Result string: 1.7

====

Biological target: human Kv3.1 channels (hKv3.1) (Homo sapiens)
Sequence (P48547 1-501 limits assumed): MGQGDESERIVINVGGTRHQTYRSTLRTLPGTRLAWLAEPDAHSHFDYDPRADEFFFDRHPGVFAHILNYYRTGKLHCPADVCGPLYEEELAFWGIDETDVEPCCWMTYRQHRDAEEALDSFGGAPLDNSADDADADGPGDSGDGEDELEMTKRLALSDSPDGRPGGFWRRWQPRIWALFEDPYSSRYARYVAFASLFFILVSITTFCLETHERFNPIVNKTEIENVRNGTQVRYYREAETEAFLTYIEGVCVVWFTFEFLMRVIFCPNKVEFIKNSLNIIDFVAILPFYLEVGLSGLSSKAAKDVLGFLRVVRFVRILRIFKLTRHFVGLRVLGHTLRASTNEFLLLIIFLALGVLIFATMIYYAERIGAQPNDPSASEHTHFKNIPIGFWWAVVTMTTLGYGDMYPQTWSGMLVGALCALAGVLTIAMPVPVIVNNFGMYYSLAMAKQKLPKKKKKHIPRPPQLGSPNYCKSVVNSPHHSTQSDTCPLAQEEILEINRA
Assay: Measurement of Kv3 channel modulation: Kv3.1 assay (IonWorks Quattro whole-cell electrophysiology)
Assay type: cell-based
Conditions: Table 2, Example compounds; normalised to maximum effect of reference compound (50 microM)
property-label: Kv3.1 max R % (%)
Numbers only, in %.

# example entries with known answers
molecule | Kv3.1 max R % / %
Cc1ncc2[nH]c(=O)n(-c3ccc(Oc4cccc5c4C4(CC4)CO5)nc3)c2n1 [Example 26] | 135
Cc1ncc2[nH]c(=O)n(-c3ccc(Oc4ccc(C)c5c4C4(CC4)CO5)nc3)c2n1 [Example 25] | 190
Cc1ccc2[nH]c(=O)n(-c3cnc(Oc4cccc5c4C4(CC4)CO5)cn3)c2n1 [Example 37] | 124
Cc1ccc(Oc2ccc(-n3c(=O)[nH]c4c(C)ccnc43)cn2)c2c1OCC21CC1 [Example 2] | 83

For each listed entry, give its Kv3.1 max R %.
1. CC1(C)COc2cccc(Oc3cnc(-n4c(=O)[nH]c5cccnc54)cn3)c21 [Example 9]
2. CC1(C)COc2cccc(Oc3ccc(-n4c(=O)[nH]c5cccnc54)cn3)c21 [Example 12]
3. Cc1ccc(Oc2ccc(-n3c(=O)[nH]c4cccnc43)cn2)cc1OC(F)(F)F [Example 4]
4. O=c1[nH]c2cccnc2n1-c1cnc(Oc2cccc(OC(F)(F)F)c2)cn1 [Example 10]

Result string:
1. 147
2. 164
3. 111
4. 94
